test system: Fusarium oxysporum; test: Fungistatic activity against Fusarium oxysporum AM 13 assessed as effect on diameter of fungal growth zone; format: functional, organism-based; conditions: Fusarium oxysporum, AM 13; read-out: IC50
For each entry below, report its IC50 value.
Numbers only; they are read as µg/mL.

Exercise: May I ask what IC50 has been recorded for CC1(C)OC(=O)[C@@H]2CCCC[C@@H]21 ?
Key: 162

Exercise: May I ask what IC50 has been recorded for CC1(C)OC(=O)[C@H]2C[C@H]3O[C@H]3C[C@H]21 (racemic) ?
Key: 95.3

Exercise: May I ask what IC50 has been recorded for CC1(C)OC(=O)[C@H]2C[C@@H](O)[C@H](Br)C[C@H]21 (racemic) ?
Key: 170

Exercise: May I ask what IC50 has been recorded for O=C1OC[C@H]2C[C@H]3O[C@H]3C[C@@H]12 (racemic) ?
Key: 72.2

Exercise: May I ask what IC50 has been recorded for O=C1OC[C@@H]2C[C@@H](Br)[C@H](O)C[C@H]12 (racemic) ?
Key: 141

Exercise: May I ask what IC50 has been recorded for O=C1OC[C@H]2CC=CC[C@@H]12 (racemic) ?
Key: 282

Exercise: May I ask what IC50 has been recorded for O=C1OC[C@@H]2C[C@@H](Br)[C@H](Br)C[C@H]12 ?
Key: 47.5

Exercise: May I ask what IC50 has been recorded for O=C1OCC2CCC(O)CC12 (racemic) ?
Key: 127

Exercise: May I ask what IC50 has been recorded for CC1(C)OC(=O)[C@H]2CC=CC[C@H]21 (racemic) ?
Key: 188

Exercise: May I ask what IC50 has been recorded for O=C1OC(=O)[C@@H]2CC=CC[C@H]12 ?
Key: 220

Exercise: May I ask what IC50 has been recorded for O=C1OC(=O)C2CCCCC12 (racemic) ?
Key: 240
